protocol: in vivo
applied.conditions: male, Wistar, rat, 0.5 mg/kg
recorded.metric: half-life

1) C/C=C1\[C@H]2C=C(C)C[C@]1(N)c1ccc(=O)[nH]c1C2 [huperzine A]
~1.67 h

// provenance: patent US20130040982A1
